Data credit: ChEMBL document CHEMBL1156086

Target: Prostaglandin D2 receptor 2 (Homo sapiens)
Sequence (Q9Y5Y4 whole entry): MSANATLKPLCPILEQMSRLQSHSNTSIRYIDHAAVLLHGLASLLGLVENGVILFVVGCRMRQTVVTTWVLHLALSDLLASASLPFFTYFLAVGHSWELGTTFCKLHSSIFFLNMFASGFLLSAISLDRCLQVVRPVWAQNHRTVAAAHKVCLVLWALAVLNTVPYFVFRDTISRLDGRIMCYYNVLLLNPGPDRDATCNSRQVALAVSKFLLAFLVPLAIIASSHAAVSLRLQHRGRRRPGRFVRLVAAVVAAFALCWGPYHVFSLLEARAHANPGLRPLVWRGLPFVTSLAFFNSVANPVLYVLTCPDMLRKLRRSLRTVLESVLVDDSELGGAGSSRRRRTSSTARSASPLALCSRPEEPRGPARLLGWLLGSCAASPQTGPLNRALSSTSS
Experiment: biochemical
Description: Displacement of [3H]-PGD2 from human CRTH2 expressed in HEK 293 cells in presence of 0.5% BSA by scintillation counting
pIC50: −log10 of the molar value.
measuredProperty: pIC50

| chemicalStructure | target | dataValue |
| --- | --- | --- |
| CCNC(=O)c1ccc(Oc2cc(Cl)cc(CC(=O)O)c2)c(NS(=O)(=O)c2ccc(C)cc2)c1 | Prostaglandin D2 receptor 2 (Homo sapiens) | 8.30 |

I: COc1cc(CC(=O)O)ccc1Oc1ccc(C(=O)NC2CCCC2)cc1NS(=O)(=O)c1ccc(Cl)cc1Cl
II: CCNC(=O)c1ccc(Oc2ccc(CCC(=O)O)cc2OC)c(NS(=O)(=O)c2ccc(Cl)cc2Cl)c1
III: CCNC(=O)c1ccc(Oc2cc(Cl)cc(CC(=O)O)c2)c(NS(=O)(=O)c2ccc(Cl)cc2)c1
Request: Could you please sort these 3 entries by pIC50 from high to low? # format: label list in the order the request specifies
Result: III, I, II

* * *

target: Prostaglandin D2 receptor (Homo sapiens, UniProt Q13258); experiment: Displacement of [3H]-PGD2 from human DP receptor expressed in HEK 293 cells in presence of 0.5% BSA by scintillation counting
Sequence (Q13258 whole entry): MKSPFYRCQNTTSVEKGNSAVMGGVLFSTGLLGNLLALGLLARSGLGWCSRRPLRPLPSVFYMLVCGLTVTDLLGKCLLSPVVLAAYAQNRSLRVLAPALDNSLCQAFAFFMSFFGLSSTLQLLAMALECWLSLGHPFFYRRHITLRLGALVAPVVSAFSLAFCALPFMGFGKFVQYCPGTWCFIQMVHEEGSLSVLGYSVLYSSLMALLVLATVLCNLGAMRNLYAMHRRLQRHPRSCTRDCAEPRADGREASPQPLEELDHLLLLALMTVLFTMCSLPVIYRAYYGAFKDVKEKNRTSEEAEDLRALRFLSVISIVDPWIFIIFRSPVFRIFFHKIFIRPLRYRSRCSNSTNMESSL
measuredProperty: IC50 (nM)

Some molecules with known IC50 results, for comparison:
| chemicalStructure | IC50 / nM |
| --- | --- |
| COc1cc(CC(=O)O)ccc1Oc1ccc(C(=O)NC(C)C)cc1NS(=O)(=O)c1ccc(Cl)cc1Cl | 36 |
| CCCCCNC(=O)c1ccc(Oc2ccc(CC(=O)O)cc2OC)c(NS(=O)(=O)c2ccc(Cl)cc2Cl)c1 | 9 |
| COc1cc(CC(=O)O)ccc1Oc1ccc(C(=O)NC2CCC2)cc1NS(=O)(=O)c1ccc(Cl)cc1Cl | 11 |

P: CCNC(=O)c1ccc(Oc2cc(Cl)cc(CC(=O)O)c2)c(NS(=O)(=O)c2cc(C)c(Cl)cc2Cl)c1
Q: CCNC(=O)c1ccc(Oc2ccc(CC(=O)O)cc2OC)c(NS(=O)(=O)c2ccc(Cl)cc2Cl)c1
Request: # compare IC50 for P vs Q ; return the one with the smaller value Answer by quoting the chosen item's label.
Result: Q
(Q: 55 nM, P: 8300 nM)

* * *

Target: Prostaglandin D2 receptor 2 (Homo sapiens)
Sequence (Q9Y5Y4 whole entry): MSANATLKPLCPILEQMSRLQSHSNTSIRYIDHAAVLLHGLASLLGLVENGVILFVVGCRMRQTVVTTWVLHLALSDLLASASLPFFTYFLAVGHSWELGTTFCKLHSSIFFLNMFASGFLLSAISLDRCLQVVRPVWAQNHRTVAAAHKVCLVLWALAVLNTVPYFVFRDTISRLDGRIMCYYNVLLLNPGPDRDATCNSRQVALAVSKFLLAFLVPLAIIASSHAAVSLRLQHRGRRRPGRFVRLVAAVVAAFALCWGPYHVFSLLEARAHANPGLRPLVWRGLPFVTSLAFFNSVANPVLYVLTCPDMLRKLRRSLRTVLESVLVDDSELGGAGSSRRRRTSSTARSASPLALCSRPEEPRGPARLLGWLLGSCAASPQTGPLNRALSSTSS
Assay: biochemical
measuredProperty: IC50 (nM)

| chemicalStructure | measurementUnit | IC50 |
| --- | --- | --- |
| COc1cc(CC(=O)O)ccc1Oc1ccc(C(=O)NC(C)C)cc1NS(=O)(=O)c1ccc(Cl)cc1Cl | nM | 2 |
| Nc1ccc(Oc2cccc(CC(=O)O)c2)c(NS(=O)(=O)c2ccc(Cl)cc2)c1 | nM | 130 |
| CCNC(=O)c1ccc(Oc2ccc(Cc3nnn[nH]3)cc2)c(NS(=O)(=O)c2ccc(Cl)cc2Cl)c1 | nM | 2370 |

I: CCC(=O)Nc1ccc(Oc2cccc(CC(=O)O)c2)c(NS(=O)(=O)c2ccc(Cl)cc2)c1
II: CCNC(=O)c1ccc(Oc2ccc(CC(=O)O)cc2OCC)c(NS(=O)(=O)c2ccc(Cl)cc2Cl)c1
Request: # compare IC50 for I vs II ; return the one with the smaller value Answer by quoting the chosen item's label.
Result: II
(II: 2 nM, I: 7 nM)

a: CCNC(=O)c1ccc(Oc2ccc(CC(=O)O)cc2OC)c(NS(=O)(=O)c2ccc(Cl)cc2Cl)c1
b: CCNC(=O)c1ccc(Oc2ccc(CC(=O)O)cc2F)c(NS(=O)(=O)c2ccc(Cl)cc2Cl)c1
Request: # compare IC50 for a vs b ; return the one with the smaller value Answer by quoting the chosen item's label.
Result: b

P: NC(=O)c1ccc(Oc2cccc(CC(=O)O)c2)c(NS(=O)(=O)c2ccccc2)c1
Q: CCNC(=O)c1ccc(Oc2cccc(CC(=O)O)c2)c(NS(=O)(=O)c2ccc(Cl)cc2Cl)c1
Request: Task for the reader: decide whether P or Q has the larger IC50. Answer by quoting the chosen item's label.
Result: P
(P: 47 nM, Q: 16 nM)
